test system: NCI-H196 complex spheroid viability; assay: Anticancer human tumor NCI-H196 cell line growth inhibition [LSD1]; settings: second compound 3.16 µM; first compound 0.316 µM; hits give low values;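 further: spheroids exposed to agents for 7 days before readout; 100% = DMSO vehicle control viability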
Assay readout: viability, T/C (%)
Give just the numeric value; % need not be written.

Task item: I would be grateful if you could share the reported viability, T/C for COc1ccc([C@@H](O)c2cc(-c3ncnc4cc(N5CCOCC5)ccc34)c(F)cc2Cl)nn1 + NC1CCC(NC2CC2c2ccccc2)CC1 .
Reply: 88.9

Task item: What about this compound? CC1(C)CCC(CN2CCN(c3ccc(C(=O)NS(=O)(=O)c4ccc(NCC5CCOCC5)c([N+](=O)[O-])c4)c(Oc4cnc5[nH]ccc5c4)c3)CC2)=C(c2ccc(Cl)cc2)C1 + NC1CCC(NC2CC2c2ccccc2)CC1
Reply: 95.4

Task item: What about this compound? O=C(C=Cn1cnc(-c2cc(C(F)(F)F)cc(C(F)(F)F)c2)n1)NNc1cnccn1 + NC1CC1c1ccc(-c2cccc(O)c2)cc1
Reply: 10.2

Task item: What about this compound? CC1COCCN1c1cc(C2(S(C)(=N)=O)CC2)nc(-c2ccnc3[nH]ccc23)n1 (stereo unspecified) + NC1CC1c1ccc(-c2cccc(O)c2)cc1
Reply: 93.9

Task item: What about this compound? Nc1ncn(C2CC(O)C(CO)O2)c(=O)n1 (stereo unspecified) + NC1CC1c1ccc(-c2cccc(O)c2)cc1
Reply: 106

Task item: What about this compound? COc1ccc([C@@H](O)c2cc(-c3ncnc4cc(N5CCOCC5)ccc34)c(F)cc2Cl)nn1 + NC1CC1c1ccc(-c2cccc(O)c2)cc1
Reply: 90.8
